pIC50: −log10 of the molar value.
observation type: pIC50

Prompt: Identify the measured pIC50 of `COc1ccc(-c2ccc(NC(=O)Nc3cc(C)ccc3F)cc2)c2c(N)noc12` for Tyrosine-protein kinase HCK (Homo sapiens, UniProt P08631).
Completion: < 4.30

Prompt: # returns recorded pIC50 (system: Tyrosine-protein kinase HCK (Homo sapiens, UniProt P08631)) for `COc1ccc(-c2ccc(NC(=O)Nc3cccc(Cl)c3)cc2)c2c(N)noc12`
Sequence (P08631 whole entry): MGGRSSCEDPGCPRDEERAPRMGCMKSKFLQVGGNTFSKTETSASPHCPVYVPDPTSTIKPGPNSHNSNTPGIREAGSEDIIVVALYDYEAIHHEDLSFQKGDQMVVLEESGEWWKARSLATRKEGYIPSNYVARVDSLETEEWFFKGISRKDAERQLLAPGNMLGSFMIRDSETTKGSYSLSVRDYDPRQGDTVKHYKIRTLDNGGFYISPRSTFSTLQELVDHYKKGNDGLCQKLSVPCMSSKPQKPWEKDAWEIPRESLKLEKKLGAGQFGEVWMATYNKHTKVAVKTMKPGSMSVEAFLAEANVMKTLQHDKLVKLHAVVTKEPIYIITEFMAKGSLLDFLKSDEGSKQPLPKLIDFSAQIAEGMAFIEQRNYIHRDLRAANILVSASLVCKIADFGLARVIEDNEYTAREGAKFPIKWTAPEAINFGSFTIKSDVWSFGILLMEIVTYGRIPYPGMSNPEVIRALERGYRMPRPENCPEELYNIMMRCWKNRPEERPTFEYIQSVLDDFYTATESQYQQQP
Completion: < 4.30

* * *

Answer each item with its documented Vd.
Experiment: Volume of distribution in mouse at 1 mg/kg, iv
Assay type: ADME, organism-based
Set-up: dose 1 mg/kg, route intravenous
Settings: in vivo
The answer is to be given in L/kg; state only the numeric part.

Prompt: Looking for the measured Vd of `COc1ccc(-c2ccc(NC(=O)Nc3cccc(Cl)c3)cc2)c2c(N)noc12` , can you help?
Completion: 1.2

Prompt: Entry `COc1ccc(-c2ccc(NC(=O)Nc3cccc(C(F)(F)F)c3)cc2)c2c(N)noc12` has what Vd?
Completion: 2.2

* * *

Assay: Oral bioavailability in mouse at 10 mg/kg
Format: ADME, organism-based
Conditions: in vivo
observation type: bioavailability

Prompt: // returns reported bioavailability for input `COc1ccc(-c2ccc(NC(=O)Nc3cccc(Cl)c3)cc2)c2c(N)noc12`
Completion: 99%

Prompt: Give its bioavailability value. Item: `COc1ccc(-c2ccc(NC(=O)Nc3cc(C)ccc3F)cc2)c2c(N)noc12`
Completion: 34%

Prompt: Which bioavailability value belongs to `Nc1noc2cccc(-c3ccc(NC(=O)Nc4ccc(F)c(C(F)(F)F)c4)cc3)c12` ?
Completion: 100%

Prompt: Would you mind telling me what bioavailability value was observed for `COc1ccc(-c2ccc(NC(=O)Nc3cccc(C(F)(F)F)c3)cc2)c2c(N)noc12` ?
Completion: 100%

Prompt: // returns reported bioavailability for input `COc1ccc(-c2ccc(NC(=O)Nc3cccc(Br)c3)cc2)c2c(N)noc12`
Completion: 71%

* * *

Biological target: Receptor-type tyrosine-protein kinase FLT3 (Homo sapiens)
Sequence (P36888 whole entry): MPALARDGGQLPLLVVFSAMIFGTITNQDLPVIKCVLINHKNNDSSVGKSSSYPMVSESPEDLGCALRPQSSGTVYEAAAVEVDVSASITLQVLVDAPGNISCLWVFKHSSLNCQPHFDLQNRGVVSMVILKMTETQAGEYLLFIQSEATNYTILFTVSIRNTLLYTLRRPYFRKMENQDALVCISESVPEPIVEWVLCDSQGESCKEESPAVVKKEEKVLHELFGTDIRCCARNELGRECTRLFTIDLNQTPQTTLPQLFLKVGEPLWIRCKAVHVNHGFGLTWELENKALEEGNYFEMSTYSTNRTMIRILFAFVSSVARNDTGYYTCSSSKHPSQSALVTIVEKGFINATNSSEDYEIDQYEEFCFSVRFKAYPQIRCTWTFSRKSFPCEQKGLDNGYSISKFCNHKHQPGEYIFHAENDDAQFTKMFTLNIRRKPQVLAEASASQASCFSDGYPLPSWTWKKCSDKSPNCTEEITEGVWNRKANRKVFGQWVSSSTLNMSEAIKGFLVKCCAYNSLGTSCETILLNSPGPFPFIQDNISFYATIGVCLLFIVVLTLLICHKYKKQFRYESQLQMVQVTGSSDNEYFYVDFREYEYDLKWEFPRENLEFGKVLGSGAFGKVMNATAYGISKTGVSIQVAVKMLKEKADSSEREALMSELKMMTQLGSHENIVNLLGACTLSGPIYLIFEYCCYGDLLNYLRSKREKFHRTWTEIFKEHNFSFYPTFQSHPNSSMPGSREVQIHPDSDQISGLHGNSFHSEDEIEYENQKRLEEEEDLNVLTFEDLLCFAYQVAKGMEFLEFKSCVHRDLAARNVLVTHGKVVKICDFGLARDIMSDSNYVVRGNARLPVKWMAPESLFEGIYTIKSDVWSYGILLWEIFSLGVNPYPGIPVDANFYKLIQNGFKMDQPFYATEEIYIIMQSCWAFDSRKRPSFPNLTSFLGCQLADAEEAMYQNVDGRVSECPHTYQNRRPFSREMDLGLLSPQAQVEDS
observation type: IC50 (nM)
Reply with just the number (in nM).

Prompt: Endpoint output: IC50 of `Nc1noc2cccc(-c3ccc(NC(=O)Nc4ccc(OC(F)(F)F)cc4)cc3)c12` . Value?
Completion: 27

Prompt: Need IC50 of `COc1ccc(-c2ccc(NC(=O)Nc3cc(C)ccc3F)cc2)c2c(N)noc12` , thanks.
Completion: 36

Prompt: Value lookup for IC50; key = `Cc1ccc(F)c(NC(=O)Nc2ccc(-c3ccc(OC(F)(F)F)c4onc(N)c34)cc2)c1`
Completion: 58

Prompt: Name the reported IC50 value associated with the compound `COc1ccc(-c2ccc(NC(=O)Nc3cccc(Cl)c3)cc2)c2c(N)noc12`
Completion: 30

Prompt: What value of IC50 has been recorded for this entry: `Nc1noc2cccc(-c3ccc(NC(=O)Nc4ccc(F)c(Cl)c4)cc3)c12`
Completion: 22

Prompt: Reported IC50 for `Nc1noc2cccc(-c3ccc(NC(=O)Nc4cccc([N+](=O)[O-])c4)cc3)c12` : what is it?
Completion: 5

Prompt: // query IC50 value for entry `Nc1noc2cccc(-c3ccc(NC(=O)Nc4cccc(C(F)(F)F)c4)cc3)c12`
Completion: 64

Prompt: // lookup IC50 for `Nc1noc2cccc(-c3ccc(NC(=O)Nc4cccc(Cl)c4)cc3)c12`
Completion: 6

Prompt: What value of measured IC50 is listed for `Nc1noc2cccc(-c3ccc(NC(=O)Nc4ccc(F)cc4)cc3)c12` ?
Completion: 4

Ref: ChEMBL document CHEMBL1142358
